- Target or system: CYP2D6 (Homo sapiens, UniProt P10635)
- Sequence (P10635 whole entry): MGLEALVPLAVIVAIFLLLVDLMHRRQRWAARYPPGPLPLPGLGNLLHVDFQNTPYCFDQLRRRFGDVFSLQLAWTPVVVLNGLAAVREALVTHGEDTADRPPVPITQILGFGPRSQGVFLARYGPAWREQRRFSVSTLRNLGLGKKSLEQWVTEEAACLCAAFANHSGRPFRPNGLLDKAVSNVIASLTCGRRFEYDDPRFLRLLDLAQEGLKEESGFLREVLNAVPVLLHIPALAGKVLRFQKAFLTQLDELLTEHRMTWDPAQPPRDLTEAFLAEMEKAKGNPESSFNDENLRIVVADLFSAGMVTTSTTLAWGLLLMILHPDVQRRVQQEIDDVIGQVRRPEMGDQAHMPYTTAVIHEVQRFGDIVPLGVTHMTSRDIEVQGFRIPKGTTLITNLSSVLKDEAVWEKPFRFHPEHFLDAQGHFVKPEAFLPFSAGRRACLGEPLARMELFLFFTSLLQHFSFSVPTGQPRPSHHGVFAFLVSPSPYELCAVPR
- Protocol summary: Cytochrome P450 inhibition assay, CYP2D6
- Condition summary: liver microsomes
Measure: CYP2D6 Inhibition (%)
Kindly provide the numeric value in % only, without the unit symbol.

These solved cases illustrate the format of a correct answer.
Find the measured CYP2D6 Inhibition of O=C(c1ccc2nc(-c3cnccc3C3CCCC3)oc2c1)N1CC2(CC(n3cnc(C4CC4)n3)C2)C1 and report it.
34

Indicate the recorded CYP2D6 Inhibition value for this compound: O=C(c1ccc2nc(-c3cccnc3C3CCNCC3)oc2c1)N1CCN(c2nc3nc(Cl)ccc3o2)CC1.O=CO
18

New cases:
Specify reported CYP2D6 Inhibition for the compound shown: O=C(c1ccc2nc(-c3ccc(C4(C5CCC5)CC4)nc3)oc2c1)N1CCN(c2nc3ccccc3c(=O)[nH]2)CC1
16

###

- Protocol summary: Solubility in 0.05M PO4-
- Format: physicochemical
- Condition summary: 0.05 M phosphate buffer, aqueous buffer
Listing of entries alongside the reported solubility.

Give solubility for O=C(c1ccc2nc(-c3cccnc3)oc2c1)N1CCN(c2nc3ccccc3c(=O)[nH]2)CC1 [Compound 17]
4.2 µg/mL

Tell us which solubility value is on record for O=C(c1ccc2nc(-c3ccc(C4CCCC4)nc3)oc2c1)N1CCN(c2nc3ccccc3c(=O)[nH]2)CC1 [Compound 22]
< 0.05 µg/mL

Output measured solubility for this item: O=C(c1ccc2nc(-c3cnccc3C3CCNCC3)oc2c1)N1CCN(c2nc3nc(Cl)ccc3o2)CC1.O=CO [Compound 25]
84 µg/mL

New cases:
Answer with the recorded solubility of O=C(c1ccc2nc(-c3cnccc3C3CCCC3)oc2c1)N1CCN(c2nc3nc(Cl)ccc3o2)CC1 [Compound 23] only.
< 0.05 µg/mL

Output measured solubility for this item: O=C(c1ccc2nc(-c3cnc(C4CCCCC4)cc3C3CCCCC3)oc2c1)N1CCN(c2nc3ccccc3c(=O)[nH]2)CC1 [Compound 19]
< 1.1 µg/mL

# return recorded solubility for entry O=C(c1ccc2nc(-c3cccnc3C3CCCC3)oc2c1)N1CCN(c2nc3nc(Cl)ccc3o2)CC1 [Compound 24]
< 0.05 µg/mL

Give solubility for O=C(c1ccc2nc(-c3cnccc3C3CCCC3)oc2c1)N1CC2(CC(n3cnc(C4CC4)n3)C2)C1 [Compound 29]
< 0.05 µg/mL

###

- Protocol summary: Solubility in FESSIF
- Assay type: physicochemical
As shown below, each of these compounds has a reported solubility value.
Write the value in µg/mL as a bare number.

Look over these answered cases.
Identify measured solubility corresponding to O=C(c1ccc2nc(-c3cccnc3C3CCCC3)oc2c1)N1CCN(c2nc3nc(Cl)ccc3o2)CC1
2.5

State its solubility: O=C(c1ccc2nc(-c3cnccc3C3CCCC3)oc2c1)N1CC2(CC(n3cnc(C4CC4)n3)C2)C1
25

# evaluate next
Query solubility for O=C(c1ccc2nc(-c3cnccc3C3CCCC3)oc2c1)N1CCN(c2nc3nc(Cl)ccc3o2)CC1
1.9

###

- Target or system: CYP3A4 (Homo sapiens, UniProt P08684)
- Sequence (P08684 whole entry): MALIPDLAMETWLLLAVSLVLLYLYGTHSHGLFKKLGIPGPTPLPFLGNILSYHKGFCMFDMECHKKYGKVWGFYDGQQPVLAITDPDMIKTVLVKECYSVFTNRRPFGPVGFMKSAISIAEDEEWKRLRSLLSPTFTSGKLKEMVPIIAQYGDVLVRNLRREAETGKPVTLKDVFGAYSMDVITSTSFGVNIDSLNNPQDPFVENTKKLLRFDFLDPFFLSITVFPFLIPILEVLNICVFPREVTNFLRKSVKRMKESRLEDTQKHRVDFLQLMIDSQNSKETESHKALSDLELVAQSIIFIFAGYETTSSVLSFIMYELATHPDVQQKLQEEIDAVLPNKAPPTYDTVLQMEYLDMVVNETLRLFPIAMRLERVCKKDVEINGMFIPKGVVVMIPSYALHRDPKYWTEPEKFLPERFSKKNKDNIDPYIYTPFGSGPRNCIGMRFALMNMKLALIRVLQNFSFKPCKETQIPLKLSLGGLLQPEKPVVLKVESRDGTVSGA
- Protocol summary: Cytochrome P450 inhibition assay, CYP3A4
- Condition summary: liver microsomes
Measure: CYP3A4 Inhibition

Solved cases (10 shown):
State, in one line, measured CYP3A4 Inhibition of O=C(c1ccc2nc(-c3cnccc3C3CCNCC3)oc2c1)N1CCN(c2nc3nc(Cl)ccc3o2)CC1.O=CO [Compound 25]
70%

Give reported CYP3A4 Inhibition value for O=C(c1ccc2nc(-c3cccnc3C3CCCC3)oc2c1)N1CCN(c2nc3ccccc3c(=O)[nH]2)CC1 [Compound 21]
4%

State, in one line, measured CYP3A4 Inhibition of O=C(c1ccc2nc(-c3ccc(C4CCCC4)nc3)oc2c1)N1CCN(c2nc3ccccc3c(=O)[nH]2)CC1 [Compound 22]
-59%

Return reported CYP3A4 Inhibition. Input molecule: O=C(c1ccc2nc(-c3ccc(C4CCCC4)nc3)oc2c1)N1CC2(CC(n3cnc(C4CC4)n3)C2)C1 [Compound 30]
-40%

Read the entry O=C(c1ccc2nc(-c3cccnc3C3CCNCC3)oc2c1)N1CCN(c2nc3nc(Cl)ccc3o2)CC1.O=CO [Compound 26] and write its reported CYP3A4 Inhibition.
12%

// Input: O=C(c1ccc2nc(-c3cnccc3C3CCCC3)oc2c1)N1CC(N2CCN(C(=O)c3nccs3)CC2)C1 [Compound 31] . Output its CYP3A4 Inhibition only.
> 90%

Fill in CYP3A4 Inhibition for record O=C(c1ccc2nc(-c3cccnc3)oc2c1)N1CCN(c2nc3ccccc3c(=O)[nH]2)CC1 [Compound 17]
16%

Report CYP3A4 Inhibition, nothing else, for this molecule: O=C(c1ccc2nc(-c3cnccc3C3CCCC3)oc2c1)N1CC2(CC(n3cnc(C4CC4)n3)C2)C1 [Compound 29]
84%

Return CYP3A4 Inhibition for the following molecule: O=C(c1ccc2nc(-c3cccnc3C3CCCC3)oc2c1)N1CCN(c2nc3nc(Cl)ccc3o2)CC1 [Compound 24]
8%

Give the reported CYP3A4 Inhibition for this molecule. O=C(c1ccc2nc(-c3ccc(C4(C5CCC5)CC4)nc3)oc2c1)N1CCN(c2nc3ccccc3c(=O)[nH]2)CC1 [Compound 20]
49%

---
Give CYP3A4 Inhibition for O=C(c1ccc2nc(-c3cnccc3C3(C4CCC4)CC3)oc2c1)N1CCN(c2nc3nc(Cl)ccc3o2)CC1 [Compound 27]
> 90%

Tell us which CYP3A4 Inhibition value is on record for O=C(c1ccc2nc(-c3cnccc3C3CCCC3)oc2c1)N1CCN(c2nc3ccccc3c(=O)[nH]2)CC1 [Compound 18]
> 90%

Output CYP3A4 Inhibition of O=C(c1ccc2nc(-c3cnccc3C3CCCC3)oc2c1)N1CCN(c2nc3nc(Cl)ccc3o2)CC1 [Compound 23]
> 90%

Give reported CYP3A4 Inhibition value for O=C(c1ccc2nc(-c3cnc(C4CCCCC4)cc3C3CCCCC3)oc2c1)N1CCN(c2nc3ccccc3c(=O)[nH]2)CC1 [Compound 19]
44%

###

- Target or system: ABCB1 (MDR1, human P-gp) (Homo sapiens, UniProt P08183)
- Sequence (P08183 whole entry): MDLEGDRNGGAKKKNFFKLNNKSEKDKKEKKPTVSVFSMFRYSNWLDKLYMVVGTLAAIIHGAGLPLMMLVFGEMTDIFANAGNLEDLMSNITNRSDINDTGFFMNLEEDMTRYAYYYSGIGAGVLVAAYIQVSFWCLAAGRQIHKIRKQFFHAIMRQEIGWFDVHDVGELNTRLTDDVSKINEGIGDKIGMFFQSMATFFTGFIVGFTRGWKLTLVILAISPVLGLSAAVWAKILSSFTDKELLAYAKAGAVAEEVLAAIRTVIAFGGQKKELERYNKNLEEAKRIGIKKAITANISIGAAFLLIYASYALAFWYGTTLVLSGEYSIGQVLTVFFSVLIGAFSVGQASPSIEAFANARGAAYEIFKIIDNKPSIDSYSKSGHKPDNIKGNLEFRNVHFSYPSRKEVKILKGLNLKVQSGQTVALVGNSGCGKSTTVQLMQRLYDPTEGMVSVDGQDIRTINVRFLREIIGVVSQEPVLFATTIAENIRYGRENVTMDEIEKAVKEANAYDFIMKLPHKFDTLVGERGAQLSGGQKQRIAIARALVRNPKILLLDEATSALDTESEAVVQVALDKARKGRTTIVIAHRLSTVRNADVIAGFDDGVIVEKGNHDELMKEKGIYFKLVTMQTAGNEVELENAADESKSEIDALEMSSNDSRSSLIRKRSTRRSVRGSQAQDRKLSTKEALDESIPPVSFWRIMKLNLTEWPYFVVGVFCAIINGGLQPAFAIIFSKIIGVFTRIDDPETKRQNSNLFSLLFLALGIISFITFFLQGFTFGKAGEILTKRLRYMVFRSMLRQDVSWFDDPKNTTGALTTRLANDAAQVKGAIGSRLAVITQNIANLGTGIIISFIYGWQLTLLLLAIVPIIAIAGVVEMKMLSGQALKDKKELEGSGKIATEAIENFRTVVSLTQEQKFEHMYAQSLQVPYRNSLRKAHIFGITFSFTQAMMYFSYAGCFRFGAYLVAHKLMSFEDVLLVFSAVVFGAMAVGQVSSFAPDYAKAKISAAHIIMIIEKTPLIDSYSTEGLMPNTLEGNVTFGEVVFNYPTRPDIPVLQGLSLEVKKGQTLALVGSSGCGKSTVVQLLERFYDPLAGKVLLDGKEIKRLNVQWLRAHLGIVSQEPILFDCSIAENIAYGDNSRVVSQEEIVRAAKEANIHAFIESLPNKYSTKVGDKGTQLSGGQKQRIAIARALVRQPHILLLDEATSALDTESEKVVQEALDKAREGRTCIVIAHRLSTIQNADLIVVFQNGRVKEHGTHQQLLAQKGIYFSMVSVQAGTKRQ
- Protocol summary: P-glycoprotein (P-gp) assay in LLC-PK1 cells transfected with ABCB1
- Condition summary: human, LLC-PK1
Measure: Papp A→B (×10⁻⁶ cm/s)
Give the quantity in ×10⁻⁶ cm/s, number only.

Example entries and their recorded answers appear below.
Supply Papp A→B value. Item: O=C(c1ccc2nc(-c3cccnc3C3CCCC3)oc2c1)N1CCN(c2nc3nc(Cl)ccc3o2)CC1 [Compound 24]
9.3

Tell us which Papp A→B value is on record for O=C(c1ccc2nc(-c3cnccc3C3CCCC3)oc2c1)N1CCN(c2nc3nc(Cl)ccc3o2)CC1 [Compound 23]
8.9

Identify the reported Papp A→B for the following entry. O=C(c1ccc2nc(-c3ccc(C4CCCC4)nc3)oc2c1)N1CCN(c2nc3ccccc3c(=O)[nH]2)CC1 [Compound 22]
8.1

Name the recorded Papp A→B of the compound listed here: O=C(c1ccc2nc(-c3cnccc3C3CCCC3)oc2c1)N1CC2(CC(n3cnc(C4CC4)n3)C2)C1 [Compound 29]
13.2

Supply reported Papp A→B belonging to this compound: O=C(c1ccc2nc(-c3cccnc3)oc2c1)N1CCN(c2nc3ccccc3c(=O)[nH]2)CC1 [Compound 17]
11.7

Alright, here's another compound for you.
Assign Papp A→B to the following record: O=C(c1ccc2nc(-c3cccnc3C3CCCC3)oc2c1)N1CCN(c2nc3ccccc3c(=O)[nH]2)CC1 [Compound 21]
10

###

Measured microsomal CLint at 1 µM accompanies every entry in the list below.
- Protocol summary: Microsomal clearance, human microsomes
The reply should contain only the number, in µL/min/mg.

Supply microsomal CLint at 1 µM value. Item: O=C(c1ccc2nc(-c3cnccc3C3CCCC3)oc2c1)N1CCN(c2nc3nc(Cl)ccc3o2)CC1
415

Indicate the recorded microsomal CLint at 1 µM value for this compound: O=C(c1ccc2nc(-c3cnccc3C3CCCC3)oc2c1)N1CC2(CC(n3cnc(C4CC4)n3)C2)C1
425

Quickly give me recorded microsomal CLint at 1 µM for O=C(c1ccc2nc(-c3cnc(C4CCCCC4)cc3C3CCCCC3)oc2c1)N1CCN(c2nc3ccccc3c(=O)[nH]2)CC1
17

For the next question, use this compound.
Entry O=C(c1ccc2nc(-c3cnccc3C3CCNCC3)oc2c1)N1CCN(c2nc3nc(Cl)ccc3o2)CC1.O=CO needs its microsomal CLint at 1 µM filled in; supply it.
10

###

- Protocol summary: Hepatocyte clearance
- Condition summary: human, hepatocytes
Here, each record is paired with measured hepatocyte CLint at 1 µM data.
Report only the number, with the unit µL/min/1e6 cells understood.

Example entries begin here.
Entry O=C(c1ccc2nc(-c3cnccc3C3CCCC3)oc2c1)N1CCN(c2nc3nc(Cl)ccc3o2)CC1 needs its hepatocyte CLint at 1 µM filled in; supply it.
179

Give a short answer stating reported hepatocyte CLint at 1 µM for O=C(c1ccc2nc(-c3cnccc3C3CCCC3)oc2c1)N1CC2(CC(n3cnc(C4CC4)n3)C2)C1 .
181

More entries:
Indicate the recorded hepatocyte CLint at 1 µM value for this compound: O=C(c1ccc2nc(-c3cccnc3)oc2c1)N1CCN(c2nc3ccccc3c(=O)[nH]2)CC1
7.3
